system: cytotoxicity, CellTiter-Glo ATP luminescence; assay: loss of cell viability by ATP content – CellTiter-Glo, cytotoxicity control, dose response (AID 1259333)
Activity calls are given as the source filed them. The rule behind the calls is not given here; tested in parental BL2 cells.
Entry note: the call must match one of Yes (active), No (inactive)

Task: Hi, do you know how O=C1C=CC2C3C(=O)N(c4ccccc4)C(=O)C3C1N2Cc1ccccc1 (stereo not drawn) came out in this test?
Output: Yes

Task: Would you mind doing COc1cc(/C=N/n2cnnc2)ccc1OC(=O)c1ccncc1 as well?
Output: Yes

Task: Would you mind doing CC12CCC3C(CCC4(O)CC(O)CCC34C=NO)C1(O)CCC2C1=COC(=O)C1 (stereo not drawn) as well?
Output: Yes

Task: Would you mind doing C[C@H](CO)N1C[C@H](C)[C@@H](CN(C)Cc2ccc(Oc3ccccc3)cc2)Oc2c(NC(=O)CCC(F)(F)F)cccc2C1=O as well?
Output: Yes

Task: Would you mind doing CC(C)=CCc1c2c(c3occ(-c4ccc(O)c(O)c4)c(=O)c3c1O)C=CC(C)(C)O2 as well?
Output: Yes

Task: Would you mind doing C[C@H]1O[C@@H](O[C@H]2[C@@H](O)C[C@H](O[C@H]3[C@@H](O)C[C@H](O[C@H]4CC[C@]5(C)C6CC[C@]7(C)[C@@H](C8=CC(=O)OC8)CC[C@]7(O)C6CC[C@@H]5C4)O[C@@H]3C)O[C@@H]2C)C[C@H](O)[C@@H]1O (stereo partly drawn) as well?
Output: Yes

Task: Would you mind doing C[C@@H]1CN([C@@H](C)CO)C(=O)Cc2cc(NC(=O)Cc3cn(C)c4ccccc34)ccc2O[C@H]1CN(C)Cc1ccc(C(F)(F)F)cc1 as well?
Output: No

Task: Would you mind doing NC(=O)c1c(Br)n(C2OC(CO)C(O)C2O)c2ncnc(N)c12 (stereo not drawn) as well?
Output: Yes
